- assayed-system: human FXR (NR1H4) (Homo sapiens (Human))
- Sequence (Q96RI1 whole entry, the tested form may be a part): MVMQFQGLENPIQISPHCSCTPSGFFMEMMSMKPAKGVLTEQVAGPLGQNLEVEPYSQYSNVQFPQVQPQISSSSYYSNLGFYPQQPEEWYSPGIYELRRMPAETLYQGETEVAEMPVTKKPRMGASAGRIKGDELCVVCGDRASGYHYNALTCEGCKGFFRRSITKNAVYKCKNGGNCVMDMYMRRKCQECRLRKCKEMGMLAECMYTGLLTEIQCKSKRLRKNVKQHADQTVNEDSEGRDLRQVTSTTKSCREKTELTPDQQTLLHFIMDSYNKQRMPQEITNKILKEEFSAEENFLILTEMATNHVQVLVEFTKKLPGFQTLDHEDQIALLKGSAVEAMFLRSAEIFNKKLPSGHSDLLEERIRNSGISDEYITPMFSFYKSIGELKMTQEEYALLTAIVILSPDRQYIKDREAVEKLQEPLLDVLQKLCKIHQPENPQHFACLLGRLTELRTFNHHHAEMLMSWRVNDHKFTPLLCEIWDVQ
- measurement-protocol: Human FXR (NR1H4) Assay (Gal4 promoter driven luciferase reporter, Indigo Bioscience kit IB00601)
- Type: cell-based
- particulars: efficacy normalized to CDCA set as 100%
measurement-label: Efficacy (%)
The figure you give is taken to be in %; do not add the unit.

>>> data_value("CC[C@H]1[C@@H](O)[C@@H]2[C@H](CC[C@]3(C)[C@@H]([C@H](C)CCNC(=O)NS(=O)(=O)c4ccc(C(C)(C)CO)cc4)CC[C@@H]23)[C@@]2(C)CC[C@@H](O)C[C@@H]12")
490
>>> data_value("CC[C@H]1[C@@H](O)[C@@H]2[C@H](CC[C@]3(C)[C@@H]([C@H](C)CCNC(=O)NS(=O)(=O)c4cccs4)CC[C@@H]23)[C@@]2(C)CC[C@@H](O)C[C@@H]12")
402
>>> data_value("CC[C@H]1[C@@H](O)[C@@H]2[C@H](CC[C@]3(C)[C@@H]([C@H](C)CCNC(=O)NS(=O)(=O)c4ccc(N(C)C)cc4)CC[C@@H]23)[C@@]2(C)CC[C@@H](O)C[C@@H]12")
363
>>> data_value("CC[C@H]1[C@@H](O)[C@@H]2[C@H](CC[C@]3(C)[C@@H]([C@H](C)CCNC(=O)NS(=O)(=O)c4cccc5ncccc45)CC[C@@H]23)[C@@]2(C)CC[C@@H](O)C[C@@H]12")
311
>>> data_value("CC[C@H]1[C@@H](O)[C@@H]2[C@H](CC[C@]3(C)[C@@H]([C@H](C)CCNS(=O)(=O)c4cccc(N5CCCCC5)c4)CC[C@@H]23)[C@@]2(C)CC[C@@H](O)C[C@@H]12")
80

Prompt: Query (molecule): `CC[C@H]1[C@@H](O)[C@@H]2[C@H](CC[C@]3(C)[C@@H]([C@H](C)CCNC(=O)NS(=O)(=O)c4cccc(Cl)c4)CC[C@@H]23)[C@@]2(C)CC[C@@H](O)C[C@@H]12` ; field requested: Efficacy (%)
Completion: 421

Prompt: Query (molecule): `CC[C@H]1[C@@H](O)[C@@H]2[C@H](CC[C@]3(C)[C@@H]([C@H](C)CCNC(=O)NS(=O)(=O)c4ccc(Cl)cc4)CC[C@@H]23)[C@@]2(C)CC[C@@H](O)C[C@@H]12` ; field requested: Efficacy (%)
Completion: 357

Prompt: Query (molecule): `CC[C@H]1[C@@H](O)[C@@H]2[C@H](CC[C@]3(C)[C@@H]([C@H](C)CCNC(=O)NS(=O)(=O)N4CCC5(CC4)COC5)CC[C@@H]23)[C@@]2(C)CC[C@@H](O)C[C@@H]12` ; field requested: Efficacy (%)
Completion: 242

Prompt: Query (molecule): `CC[C@H]1[C@@H](O)[C@@H]2[C@H](CC[C@]3(C)[C@@H]([C@H](C)CCNC(=O)NS(=O)(=O)C4CCC(C)(C)CC4)CC[C@@H]23)[C@@]2(C)CC[C@@H](O)C[C@@H]12` ; field requested: Efficacy (%)
Completion: 244

Prompt: Query (molecule): `CC[C@H]1[C@@H](O)[C@@H]2[C@H](CC[C@]3(C)[C@@H]([C@H](C)CCNS(=O)(=O)CCC(=O)O)CC[C@@H]23)[C@@]2(C)CC[C@@H](O)C[C@@H]12` ; field requested: Efficacy (%)
Completion: 16
